These entries and their values trace back to patent US11149031B2.

Target: His6-ERα298-554 D538G mutant (ERα ligand-binding domain) (Homo sapiens (Human), UniProt P03372, D538G)
Sequence (P03372 298-554 D538G): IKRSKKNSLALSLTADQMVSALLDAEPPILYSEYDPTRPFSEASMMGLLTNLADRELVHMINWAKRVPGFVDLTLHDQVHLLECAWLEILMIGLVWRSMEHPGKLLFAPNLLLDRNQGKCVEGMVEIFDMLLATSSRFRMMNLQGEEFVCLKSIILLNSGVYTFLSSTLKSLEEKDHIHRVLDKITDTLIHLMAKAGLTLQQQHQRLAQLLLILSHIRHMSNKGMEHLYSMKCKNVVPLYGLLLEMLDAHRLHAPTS
Assay: Test A: biochemical antagonist activity, LanthaScreen TR-FRET ERα coactivator assay, D538G mutant
Conditions: asterisk (*): protocol using 10 nM estradiol; read-out: Antagonism D538G IC50
value kind: pIC50
Schema: pIC50 number; meaning minus log10 of the concentration expressed in molar units.

# molecule smiles, pIC50
rows = [
    ("COc1ccc(C2=C(c3ccc(O[C@H]4CCN(CCCF)C4)cc3)c3ccc(O)cc3OCC2)c(C)c1", 7.25),
    ("Oc1ccc2c(c1)CCCC(c1ccc(Cl)cc1Cl)=C2c1cnc(O[C@H]2CCN(CCCF)C2)nc1", 7.23),
]

Short answer for "CC1(C)Cc2cc(C3=C(c4ccc(O[C@H]5CCN(CCCF)C5)nc4)c4ccc(O)cc4CCC3)ccc2N1" : pIC50 was 8.05

----------
Biological target: His6-ERα298-554 D538G mutant (ERα ligand-binding domain) (Homo sapiens (Human), UniProt P03372, D538G)
Test: Test A: biochemical antagonist activity, LanthaScreen TR-FRET ERα coactivator assay, D538G mutant
Conditions: asterisk (*): protocol using 10 nM estradiol; read-out: Antagonism D538G IC50
Could you mark each record 1.0 if its IC50 falls strictly under 200 nM, and 0.0 if it equals or exceeds it?

Look over these answered cases.
# molecule smiles, qualitative label
records = [
    ("CCOc1ccc(C2=C(c3ccc(O[C@H]4CCN(CCCF)C4)cc3)c3ccc(O)cc3OCC2)c(F)c1", 1.0),
    ("CONC(=O)c1cc(C2=C(c3ccc(O[C@H]4CCN(CCCF)C4)cc3)c3ccc(O)cc3SCC2)ccc1F", 0.0),
    ("Cc1ccc(C2=C(c3ccc(O[C@H]4CCN(CCCF)C4)nc3)c3ccc(O)cc3SC2)c(F)c1", 1.0),
    ("COc1ccc(C2=C(c3ccc(O[C@H]4CCN(CCCF)C4)cc3)c3ccc(O)cc3SC2)c(F)c1", 1.0),
]

For the next question, use this compound.
Please state whether IC50 is below 200 nM for "Cc1noc(C)c1C1=C(c2ccc(O[C@H]3CCN(CCCF)C3)cc2)c2ccc(O)cc2SCC1"
0.0

----------
Parameter pIC50: see the listing below.
Target: His6-ERα298-554 D538G mutant (ERα ligand-binding domain) (Homo sapiens (Human), UniProt P03372, D538G)
Assay: Test A: biochemical antagonist activity, LanthaScreen TR-FRET ERα coactivator assay, D538G mutant
Settings: protocol with 3 nM estradiol; read-out: Antagonism D538G IC50
Schema: pIC50 number; meaning minus log10 of the concentration expressed in molar units.

These solved cases illustrate the format of a correct answer.
# molecule smiles, pIC50
records = [
    ("CC(C)Oc1ccc(C2=C(c3ccc(O[C@H]4CCN(CCCF)C4)cc3)c3ccc(O)cc3OCC2)cc1F", 5.82),
    ("Oc1ccc2c(c1)C(c1ccc(N[C@H]3CCN(CCCF)C3)cc1)=C(c1ccc(F)cc1Cl)CC2", 5.76),
    ("Cc1cc2c(cc1O)OCCC(c1cccc(O)c1)=C2c1ccc(O[C@H]2CCN(CCCF)C2)cc1", 7.23),
    ("Oc1ccc2c(c1)OCCC(c1ccc(Cl)c(F)c1)=C2c1ccc(O[C@H]2CCN(CCCF)C2)cc1", 6.45),
    ("Oc1ccc2c(c1F)OCCC(c1ccc3c(c1)CCN3)=C2c1ccc(O[C@H]2CCN(CCCF)C2)cc1", 7.10),
]

Next:
Short answer for "Cc1c(Cl)cccc1C1=C(c2ccc(O[C@H]3CCN(CCCF)C3)cc2)c2ccc(O)cc2OCC1" : pIC50 was 7.30
